TESTED TARGET: Nucleotide-binding oligomerization domain-containing protein 2 (Homo sapiens)
Sequence (Q9HC29 whole entry, the tested form may be a part): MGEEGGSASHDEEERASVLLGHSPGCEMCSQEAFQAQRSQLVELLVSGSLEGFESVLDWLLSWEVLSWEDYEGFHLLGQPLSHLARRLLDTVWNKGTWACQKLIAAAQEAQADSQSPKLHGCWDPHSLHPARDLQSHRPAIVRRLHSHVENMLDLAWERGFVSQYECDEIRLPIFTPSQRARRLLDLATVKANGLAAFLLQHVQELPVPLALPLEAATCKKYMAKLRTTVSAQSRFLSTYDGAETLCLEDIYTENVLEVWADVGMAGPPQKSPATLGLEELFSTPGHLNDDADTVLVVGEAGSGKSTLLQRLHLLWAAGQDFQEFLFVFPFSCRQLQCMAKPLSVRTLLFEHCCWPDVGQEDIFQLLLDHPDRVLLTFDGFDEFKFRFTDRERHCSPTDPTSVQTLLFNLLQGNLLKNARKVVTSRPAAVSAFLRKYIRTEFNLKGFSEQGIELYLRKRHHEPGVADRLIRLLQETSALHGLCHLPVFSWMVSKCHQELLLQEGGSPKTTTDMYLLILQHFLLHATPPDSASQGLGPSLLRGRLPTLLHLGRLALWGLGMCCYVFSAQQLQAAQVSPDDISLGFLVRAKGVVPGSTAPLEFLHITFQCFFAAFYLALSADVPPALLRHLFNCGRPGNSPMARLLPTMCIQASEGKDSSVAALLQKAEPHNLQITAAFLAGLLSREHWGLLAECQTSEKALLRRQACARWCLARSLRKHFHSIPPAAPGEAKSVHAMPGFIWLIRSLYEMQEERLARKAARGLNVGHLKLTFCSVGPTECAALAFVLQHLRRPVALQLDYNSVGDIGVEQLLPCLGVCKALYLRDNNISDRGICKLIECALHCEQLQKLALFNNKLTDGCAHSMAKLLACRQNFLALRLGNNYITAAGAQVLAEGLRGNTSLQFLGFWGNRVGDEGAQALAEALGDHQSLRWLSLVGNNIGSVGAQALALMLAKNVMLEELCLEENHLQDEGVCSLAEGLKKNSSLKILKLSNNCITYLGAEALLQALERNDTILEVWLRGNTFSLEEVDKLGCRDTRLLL
EXPERIMENT: Antagonist activity at human NOD2 expressed in HEK-Blue cells assessed as inhibition of MDP-stimulated cell activation at 5 uM preincubated for 3 hrs followed by MDP addition measured after 20 hrs by SEAP reporter gene assay
Assay type: cell-based
Think of 30% as a floor: if inhibition stands on it or above, it is 1 (yes); beneath it, 0 (no).

Here are 2 molecules together with their reported answers.
COC(=O)CC[C@H]1NC(=O)c2cc(Oc3cccc(N(C)C)c3)c(NC(=O)CCCc3ccccc3)cc2NC1=O; 0 (no)
COC(=O)CC[C@H]1NC(=O)c2cc(Oc3ccc(Cl)c(N(C)C)c3)c(NC(=O)COCc3ccccc3)cc2NC1=O; 1 (yes)

Hello, I need to know if `COC(=O)CC[C@H]1NC(=O)c2cc(Oc3cccc(N(C)C)c3)c(NC(=O)COCc3ccccc3Cl)cc2NC1=O` has measured inhibition not below 30%. Thanks!
0 (no)

In plain terms: is recorded inhibition at least 30% for `CN1CCN(C(=O)CC[C@H]2NC(=O)c3cc(Oc4cccc(N(C)C)c4)c(NC(=O)COCc4ccccc4)cc3NC2=O)CC1` ?
1 (yes)

Is it the case that `COC(=O)CC[C@@H]1NC(=O)c2cc(Oc3cccc(N(C)C)c3)c(NC(=O)COCc3ccc(F)cc3Cl)cc2NC1=O` has inhibition reaching or exceeding 30%?
0 (no)

Does inhibition meet or surpass 30% for `COC(=O)CC[C@H]1NC(=O)c2cc(Oc3cccc(N(C)C)c3)c(NC(=O)COCc3ccc(OC)cc3)cc2NC1=O` ?
1 (yes)

Has `COC(=O)CC[C@H]1NC(=O)c2cc(Oc3cccc(N(C)C)c3)c(NC(=O)COCc3ccoc3)cc2NC1=O` a recorded inhibition greater than or equal to 30%?
0 (no)

Does the reported inhibition for `COC(=O)CC[C@H]1NC(=O)c2cc(Oc3cccc(N(C)C)c3Cl)c(NC(=O)COCc3ccccc3)cc2NC1=O` fall at or above the 30% mark?
1 (yes)

Could you tell me if the measured inhibition of `COC(=O)CC[C@H]1NC(=O)c2cc(Oc3cccc(N(C)C)c3)c(NC(=O)COCc3cccc(Br)c3)cc2NC1=O` reaches 30% or more?
1 (yes)
